target: UniProt P50406; experiment: Displacement of [3H]LSD from human 5HT6 receptor expressed in HEK293 cells after 1.5 hrs by liquid scintillation counting
Sequence (P50406 whole entry): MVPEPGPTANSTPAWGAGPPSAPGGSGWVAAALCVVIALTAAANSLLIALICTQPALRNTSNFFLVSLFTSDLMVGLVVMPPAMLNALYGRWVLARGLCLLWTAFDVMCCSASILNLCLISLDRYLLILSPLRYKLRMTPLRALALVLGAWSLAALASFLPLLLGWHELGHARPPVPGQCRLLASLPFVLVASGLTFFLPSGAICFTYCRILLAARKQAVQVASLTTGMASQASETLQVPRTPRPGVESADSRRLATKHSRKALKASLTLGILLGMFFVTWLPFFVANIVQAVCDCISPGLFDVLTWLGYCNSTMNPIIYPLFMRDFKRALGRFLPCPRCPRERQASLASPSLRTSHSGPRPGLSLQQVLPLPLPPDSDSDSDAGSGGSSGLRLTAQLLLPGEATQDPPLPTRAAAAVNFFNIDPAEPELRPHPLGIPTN
pKi: −log10 of the molar value.
Metric: pKi

- CN(C)CCOc1ccc(/C(=C(/CCCl)c2ccccc2)c2ccccc2)cc1: 5.38
- CC/C(=C(\c1ccccc1)c1ccc(OCCN(C)C)cc1)c1ccccc1: 5.98
- CCN(CC)CCOc1ccc(C(=C(Cl)c2ccccc2)c2ccccc2)cc1: 5.71
- OCCN1CCN(CC/C=C2/c3ccccc3Sc3ccc(Cl)cc32)CC1: 6.77
- O=C(c1ccc(OCCN2CCCCC2)cc1)c1c(-c2ccc(O)cc2)sc2cc(O)ccc12: 6.12
- CNCCC=C1c2ccccc2CCc2ccccc21: 6.67
- CN(C)CCCN1c2ccccc2CCc2ccc(Cl)cc21: 6.95
- O=C1NCN(c2ccccc2)C12CCN(CCCC(c1ccc(F)cc1)c1ccc(F)cc1)CC2: 5.93
